Tested on: T. gondii β-gal tachyzoites
procedureDetails: T. gondii β-gal tachyzoite proliferation in HFF (β-galactosidase/CPRG assay)
testConditions: Toxoplasma gondii, 72 h, read-out: T. gondii β-gal proliferation (%)
List of activity at 1 µM values.
Give a bare numeral; the unit % is implied.

{"columns": ["compound", "unitAbbrev", "activity at 1 µM"],
 "data": [
  ["O=C(O)c1cc2cc3c4c(c2oc1=O)CCCN4CCC3 [Dye2‐CO2H, reference compound]", "%", 92],
  ["CCN(CC)c1ccc2cc(C(=O)NCCCCNC(=O)OC(C)(C)C)c(=O)oc2c1", "%", 125],
  ["CC(C)(C)OC(=O)NCCCCNC(=O)c1cc2cc3c4c(c2oc1=O)CCCN4CCC3", "%", 148],
  ["CCN(CC)c1ccc2cc(C(=O)NCCCNC(=O)OC(C)(C)C)c(=O)oc2c1", "%", 118],
  ["NCCCCNC(=O)c1cc2cc3c4c(c2oc1=O)CCCN4CCC3", "%", 113],
  ["CCN(CC)c1ccc2cc(C(=O)NCCCN)c(=O)oc2c1", "%", 114]
]}

Consider the record given below.
Qu. Quick one: give measured activity at 1 µM for CCN(CC)c1ccc2cc(C(=O)NCCCCN)c(=O)oc2c1
Ans. 127

---

procedureDetails: in vitro
testConditions: human
propertyMeasured: viability at 3 days, 0.1 µM (%)
Enter your answer as a number in %; do not include the unit.

The following molecules have reported results that may help.
{"columns": ["molecule", "unitAbbrev", "numericReadout"],
 "data": [
  ["CC(C)(C)OC(=O)NCCCCNC(=O)c1cc2cc3c4c(c2oc1=O)CCCN4CCC3", "%", 95],
  ["O=C(O)c1cc2cc3c4c(c2oc1=O)CCCN4CCC3 [Dye2‐CO2H, reference compound]", "%", 106],
  ["CCN(CC)c1ccc2cc(C(=O)NCCCCNC(=O)OC(C)(C)C)c(=O)oc2c1", "%", 98]
]}

Qu. Tell me viability at 3 days, 0.1 µM reported for NCCCCNC(=O)c1cc2cc3c4c(c2oc1=O)CCCN4CCC3
Ans. 124

Qu. Read the entry CCN(CC)c1ccc2cc(C(=O)NCCCNC(=O)OC(C)(C)C)c(=O)oc2c1 and write its reported viability at 3 days, 0.1 µM.
Ans. 118

Qu. Item CCN(CC)c1ccc2cc(C(=O)NCCCCN)c(=O)oc2c1 : provide viability at 3 days, 0.1 µM
Ans. 125

Qu. // fetch viability at 3 days, 0.1 µM given entry CCN(CC)c1ccc2cc(C(=O)NCCCN)c(=O)oc2c1
Ans. 96

Attribution: paper PMC7586963
